// data source = patent US20210380703A1

The binders listed here are annotated with their optical density.
Molecular target: T1, Human ACVR2A (human, UniProt P27037 20-135, limits assumed); note: test concentration or dose not given here
T1 construct: also called activin receptor, type II A
T1 sequence (P27037 20-135 limits assumed): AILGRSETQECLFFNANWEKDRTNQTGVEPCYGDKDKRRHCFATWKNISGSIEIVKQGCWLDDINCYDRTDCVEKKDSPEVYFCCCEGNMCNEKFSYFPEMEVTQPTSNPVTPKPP
Experiment: ELISA
Experimental: The binding of ACVR2A-specific monoclonal antibodies to human ACVR2A, mouse ACVR2A, biotinylated goat anti-human kappa light chain (positive control) and human Fc (negative control) were determined by ELISA.
Kindly provide the numeric value in OD only, without the unit symbol.

Example entries and their recorded answers appear below.
binder	units	readout value
369_G05 (antibody, V domains shown, VH/VL only) VH: EVQLLESGGGLVQPGGSLRLSCAASGFTFSSYSMNWVRQAPGKGLEWVAGINYNGGYTSYADSVKGRFTISRDNSKNTLYLQMNSLRAEDTAVYYCARGATWHDTHLDYWGQGTLVTVSS VL: DIQMTQSPSSLSASVGDRVTITCRASQSIVSYLNWYQQKPGKAPKLLIYAATSRHSGVPSRFSGSGSGTDFTLTISSLQPEDFATYYCQQSYDSPLTFGGGTKVEIK	OD	3.04
365_E01 (antibody, V domains shown, VH/VL only) VH: EVQLLESGGGLVQPGGSLRLSCAASGFTFSDYSMNWVRQAPGKGLEWVSGINYNSGYKGYADSVKGRFTISRDNSKNTLYLQMNSLRAEDTAVYYCARSANWHDTALDYWGQGTLVTVSS VL: DIQMTQSPSSLSASVGDRVTITCRASQSIISYLNWYQQKPGKAPKLLIYAATSRASGVPSRFSGSGSGTDFTLTISSLQPEDFATYYCQQSYDSPLTFGGGTKVEIK	OD	2.91
366_F07 (antibody, V domains shown, VH/VL only) VH: EVQLLESGGGLVQPGGSLRLSCAASGFTFSDYSMNWVRQAPGKGLEWVAGINYNSGYTSYADSVKGRFTISRDNSKNTLYLQMNSLRAEDTAVYYCARSANWHDTHLDYWGQGTLVTVSS VL: DIQMTQSPSSLSASVGDRVTITCRASQSIITYLNWYQQKPGKAPKLLIYAATSRASGVPSRFSGSGSGTDFTLTISSLQPEDFATYYCQQSYETPLTFGGGTKVEIK	OD	2.39

Lookup: Can you share its optical density? I mean this binder: 374_D09 (antibody, V domains shown, VH/VL only) VH: EVQLLESGGGLVQPGGSLRLSCAASGFTFDSYGMNWVRQAPGKGLEWVANINYNGGYKGYADSVKGRFTISRDNSKNTLYLQMNSLRAEDTAVYYCARGATWHDTHLDYWGQGTLVTVSS VL: DIQMTQSPSSLSASVGDRVTITCRASQSIISYVNWYQQKPGKAPKLLIYAATSLASGVPSRFSGSGSGTDFTLTISSLQPEDFATYYCQQSYDTPLTFGGGTKVEIK
Found: 3.61

Lookup: Please give the measured optical density for this binder: 368_D12 (antibody, V domains shown, VH/VL only) VH: EVQLLESGGGLVQPGGSLRLSCAASGFTFSSYGMNWVRQAPGKGLEWVSSINYNGGYTSYADSVKGRFTISRDNSKNTLYLQMNSLRAEDTAVYYCARGATWHDTHLDYWGQGTLVTVSS VL: DIQMTQSPSSLSASVGDRVTITCRASQSILSYVNWYQQKPGKAPKLVIYAATSRASGVPSRFSGSGSGTDFTLTISSLQPEDFATYYCQQSYNNPLTFGGGTKVEIK
Found: 2.25
